Data origin, for the record: the supplement of paper PMC10627819

Tested on: B. subtilis 168
Experiment: Bliss interaction score (quartile over a dose matrix) (fitness difference); higher = more antagonism (negative = synergy);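 note: first quartile when negative (synergy) and third quartile when positive (antagonism)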
Tick met if Bliss interaction score is 0.03 or greater. Tick not met if Bliss interaction score is less than 0.03.

Take a look at these entries with their results.
CC[C@H]1OC(=O)[C@H](C)[C@@H](O[C@H]2C[C@@](C)(OC)[C@@H](O)[C@H](C)O2)[C@H](C)[C@@H](O[C@@H]2O[C@H](C)C[C@H](N(C)C)[C@H]2O)[C@](C)(OC)C[C@@H](C)C(=O)[C@H](C)[C@@H](O)[C@]1(C)O [Clarithromycin] + CN[C@@H]1[C@H](O)[C@H](NC)[C@H]2O[C@@]3(O)C(=O)C[C@@H](C)O[C@H]3O[C@@H]2[C@H]1O [Spectinomycin] = not met
CC[C@H]1OC(=O)[C@H](C)[C@@H](O[C@H]2C[C@@](C)(OC)[C@@H](O)[C@H](C)O2)[C@H](C)[C@@H](O[C@@H]2O[C@H](C)C[C@H](N(C)C)[C@H]2O)[C@](C)(OC)C[C@@H](C)C(=O)[C@H](C)[C@@H](O)[C@]1(C)O [Clarithromycin] + Oc1cc(Cl)ccc1Oc1ccc(Cl)cc1Cl [Triclosan] = not met
O=C(O[C@@H]1Cc2c(O)cc(O)cc2O[C@@H]1c1cc(O)c(O)c(O)c1)c1cc(O)c(O)c(O)c1 [EGCG] + O=C1CN(/N=C/c2ccc([N+](=O)[O-])o2)C(=O)N1 [Nitrofurantoin] = met
CCC[C@@H]1C[C@@H](C(=O)N[C@@H]([C@H]2O[C@H](SC)[C@H](O)[C@@H](O)[C@H]2O)[C@@H](C)O)N(C)C1 [Lincomycin] + CC[C@H]1OC(=O)[C@H](C)C(=O)[C@H](C)[C@@H](O[C@@H]2O[C@H](C)C[C@H](N(C)C)[C@H]2O)[C@](C)(OC)C[C@@H](C)C(=O)[C@H](C)[C@H]2N(CCCCn3cnc(-c4cccnc4)c3)C(=O)O[C@]12C [Telithromycin] = met
CC[C@H]1OC(=O)[C@H](C)[C@@H](O[C@H]2C[C@@](C)(OC)[C@@H](O)[C@H](C)O2)[C@H](C)[C@@H](O[C@@H]2O[C@H](C)C[C@H](N(C)C)[C@H]2O)[C@](C)(OC)C[C@@H](C)C(=O)[C@H](C)[C@@H](O)[C@]1(C)O [Clarithromycin] + Cc1onc(-c2ccccc2)c1C(=O)N[C@@H]1C(=O)N2[C@@H]1SC(C)(C)[C@@H]2C(=O)O [Oxacillin] = not met

# input for lookup
Task item: Kindly determine if Bliss interaction score recorded for C[C@@H](O)[C@H]1C(=O)N2C(C(=O)O)=C(SCCNC=N)C[C@H]12 [Imipenem] + Cc1ncc([N+](=O)[O-])n1CCO [Metronidazole] is above or exactly 0.03.
Reply: met

###

Test system: S. aureus Newman
Experiment: Bliss interaction score (quartile over a dose matrix) (fitness difference); higher = more antagonism (negative = synergy)
Tick true if Bliss interaction score is 0.03 or greater. Tick false if Bliss interaction score is less than 0.03.

Take a look at these entries with their results.
O=C(O[C@@H]1Cc2c(O)cc(O)cc2O[C@@H]1c1cc(O)c(O)c(O)c1)c1cc(O)c(O)c(O)c1 [EGCG] + C[n+]1ccc(-c2cc[n+](C)cc2)cc1 [Paraquat] = false
N[C@@H]1CONC1=O [CycloserineD] + CO[C@@]12[C@H](COC(N)=O)C3=C(C(=O)C(C)=C(N)C3=O)N1C[C@@H]1N[C@@H]12 [MitomycinC] = false
O=C1CN(/N=C/c2ccc([N+](=O)[O-])o2)C(=O)N1 [Nitrofurantoin] + CN[C@@H]1[C@H](O)[C@H](NC)[C@H]2O[C@@]3(O)C(=O)C[C@@H](C)O[C@H]3O[C@@H]2[C@H]1O [Spectinomycin] = false
CCC[C@@H]1C[C@@H](C(=O)N[C@@H]([C@H]2O[C@H](SC)[C@H](O)[C@@H](O)[C@H]2O)[C@@H](C)O)N(C)C1 [Lincomycin] + COc1c(N2C[C@@H]3CCCN[C@@H]3C2)c(F)cc2c(=O)c(C(=O)O)cn(C3CC3)c12 [Moxifloxacin] = true
CC(=O)O[C@H]1C[C@@]2(C)[C@@H](C[C@@H](O)[C@H]3[C@@]4(C)CC[C@@H](O)[C@@H](C)[C@@H]4CC[C@@]32C)/C1=C(\CCC=C(C)C)C(=O)O [Fusidic acid] + CN(C)C(=O)C(CCN1CCC(O)(c2ccc(Cl)cc2)CC1)(c1ccccc1)c1ccccc1 [Loperamide] = false

# input for lookup
Task item: Kindly determine if Bliss interaction score recorded for CCC[C@@H]1C[C@@H](C(=O)N[C@@H]([C@H]2O[C@H](SC)[C@H](O)[C@@H](O)[C@H]2O)[C@H](C)Cl)N(C)C1 [Clindamycin] + Cc1cc(NS(=O)(=O)c2ccc(N)cc2)no1 [Sulfamethoxazol] is above or exactly 0.03.
Reply: true

###

Bliss interaction score values for the compounds below.
Tested on: S. aureus Newman
Experiment: Bliss interaction score (quartile over a dose matrix) (fitness difference); higher = more antagonism (negative = synergy)
Keep the answer to the number alone.

CCC[C@@H]1C[C@@H](C(=O)N[C@@H]([C@H]2O[C@H](SC)[C@H](O)[C@@H](O)[C@H]2O)[C@H](C)Cl)N(C)C1 [Clindamycin] + CN[C@H](CC(C)C)C(=O)N[C@H]1C(=O)N[C@@H](CC(N)=O)C(=O)N[C@H]2C(=O)N[C@H]3C(=O)N[C@H](C(=O)N[C@H](C(=O)O)c4cc(O)cc(O)c4-c4cc3ccc4O)[C@H](O)c3ccc(c(Cl)c3)Oc3cc2cc(c3O[C@@H]2O[C@H](CO)[C@@H](O)[C@H](O)[C@H]2O[C@H]2C[C@](C)(N)[C@H](O)[C@H](C)O2)Oc2ccc(cc2Cl)[C@H]1O [Vancomycin] = 0.135
O=C1CN(/N=C/c2ccc([N+](=O)[O-])o2)C(=O)N1 [Nitrofurantoin] + CC1=C\[C@@H](O)CC(=O)Cc2nc(co2)C(=O)N2CCC=C2C(=O)O[C@H](C(C)C)[C@H](C)/C=C/C(=O)NC\C=C\1 [Virginiamycin M1] = 0.0574
C[C@@H](O)[C@H]1C(=O)N2C(C(=O)O)=C(SCCNC=N)C[C@H]12 [Imipenem] + CO[C@@]12[C@H](COC(N)=O)C3=C(C(=O)C(C)=C(N)C3=O)N1C[C@@H]1N[C@@H]12 [MitomycinC] = 0.0577

# input for lookup
Task item: // fetch Bliss interaction score given entry CC(=O)O[C@H]1C[C@@]2(C)[C@@H](C[C@@H](O)[C@H]3[C@@]4(C)CC[C@@H](O)[C@@H](C)[C@@H]4CC[C@@]32C)/C1=C(\CCC=C(C)C)C(=O)O [Fusidic acid] + CN[C@@H]1[C@H](O)[C@H](NC)[C@H]2O[C@@]3(O)C(=O)C[C@@H](C)O[C@H]3O[C@@H]2[C@H]1O [Spectinomycin]
Reply: -0.0448

###

System: S. aureus DSM 20231
Experiment: Bliss interaction score (quartile over a dose matrix) (fitness difference); higher = more antagonism (negative = synergy)
Label scheme for Bliss interaction score: low value = under -0.05, medium value = from -0.05 up to 0.04, high value = 0.04 and over

Take a look at these entries with their results.
CCC[C@@H]1C[C@@H](C(=O)N[C@@H]([C@H]2O[C@H](SC)[C@H](O)[C@@H](O)[C@H]2O)[C@H](C)Cl)N(C)C1 [Clindamycin] + COc1ccc(C[C@H](N)C(=O)N[C@H]2[C@@H](O)[C@H](n3cnc4c(N(C)C)ncnc43)O[C@@H]2CO)cc1 [Puromycin] = medium value
COc1c(N2C[C@@H]3CCCN[C@@H]3C2)c(F)cc2c(=O)c(C(=O)O)cn(C3CC3)c12 [Moxifloxacin] + Cn1nnc(-c2ccc(-c3ccc(N4C[C@H](CO)OC4=O)cc3F)cn2)n1 [Tedizolid] = high value
CC[C@H]1OC(=O)[C@H](C)[C@@H](O[C@H]2C[C@@](C)(OC)[C@@H](O)[C@H](C)O2)[C@H](C)[C@@H](O[C@@H]2O[C@H](C)C[C@H](N(C)C)[C@H]2O)[C@](C)(OC)C[C@@H](C)C(=O)[C@H](C)[C@@H](O)[C@]1(C)O [Clarithromycin] + CC(=O)NC[C@H]1CN(c2ccc(N3CCOCC3)c(F)c2)C(=O)O1 [Linezolid] = low value
C[C@@H](O)[C@H]1C(=O)N2C(C(=O)O)=C(SCCNC=N)C[C@H]12 [Imipenem] + CO[C@@]12[C@H](COC(N)=O)C3=C(C(=O)C(C)=C(N)C3=O)N1C[C@@H]1N[C@@H]12 [MitomycinC] = medium value
O=C(N[C@H](CO)[C@H](O)c1ccc([N+](=O)[O-])cc1)C(Cl)Cl [Chloramphenicol] + CC1=C\[C@@H](O)CC(=O)Cc2nc(co2)C(=O)N2CCC=C2C(=O)O[C@H](C(C)C)[C@H](C)/C=C/C(=O)NC\C=C\1 [Virginiamycin M1] = low value
O=C(N[C@H](CO)[C@H](O)c1ccc([N+](=O)[O-])cc1)C(Cl)Cl [Chloramphenicol] + C[C@@H](O)[C@H]1C(=O)N2C(C(=O)O)=C(SCCNC=N)C[C@H]12 [Imipenem] = high value

Task item: Entry C[C@@H](O)[C@H]1C(=O)N2C(C(=O)O)=C(SCCNC=N)C[C@H]12 [Imipenem] + Cc1onc(-c2ccccc2)c1C(=O)N[C@@H]1C(=O)N2[C@@H]1SC(C)(C)[C@@H]2C(=O)O [Oxacillin] belongs to which category?
Reply: low value

Task item: Entry COc1cc(Cc2cnc(N)nc2N)cc(OC)c1OC [Trimethoprim] + CC1=C\[C@@H](O)CC(=O)Cc2nc(co2)C(=O)N2CCC=C2C(=O)O[C@H](C(C)C)[C@H](C)/C=C/C(=O)NC\C=C\1 belongs to which category?
Reply: low value

Task item: Entry N[C@@H]1CONC1=O [CycloserineD] + C[C@@H](O)[C@H]1C(=O)N2C(C(=O)O)=C(SCCNC=N)C[C@H]12 [Imipenem] belongs to which category?
Reply: high value
